Assay: Selectivity ratio of CC50 for monkey LLC-MK2 cells to IC50 for Trypanosoma cruzi Y amastigotes
Type: ADME, cell-based
Details: LLC-MK2 cells versus Trypanosoma cruzi Y amastigotes, read-out: Ratio CC50/IC50
ENDPOINT_LABEL: selectivity ratio

>>> result_value("C=C1CC[C@@H]2[C@](C)(CCC[C@@]2(C)C(=O)O)[C@H]1CC[C@H](C)CC(=O)O [PINIFOLIC ACID]")
13.5
>>> result_value("O=C(Cn1ccnc1[N+](=O)[O-])NCc1ccccc1 [BENZNIDAZOLE]")
32
>>> result_value("C=C1CC[C@@H]2[C@](C)(CCC[C@@]2(C)C(=O)O)[C@H]1CCc1ccoc1 [POLYALTIC ACID]")
2.1
>>> result_value("C=C1C[C@@]23CC[C@H]4[C@@](C)(CCC[C@@]4(C)C(=O)O)[C@@H]2CC[C@@H]1C3 [KAURENOIC ACID]")
4.6
>>> result_value("C=C1CC[C@@H]2C(C)(C)CCC[C@@]2(C)[C@@H]1CC/C(C)=C/C(=O)O [COPALIC ACID]")
30.3
>>> result_value("C=C1CC[C@@H]2C(C)(C)[C@@H](O)CC[C@@]2(C)[C@@H]1CC/C(C)=C/C(=O)O")
17.3
>>> result_value("C=C1CC[C@@H]2C(C)(C)CCC[C@@]2(C)[C@@H]1CC/C(C)=C/C(=O)OC [METHYL COPALATE]")
27.6

----------
Assay: Toxicity in human RBC assessed as hemolysis after 3 hrs
Assay type: cell-based, Erythrocyte
Conditions: red blood cells
ENDPOINT_LABEL: HC50 at 3 h

>>> result_value("C=C1CC/C=C(\\C)CC[C@@H]2[C@@H]1CC2(C)C")
"> 2.45 mM"
>>> result_value("C=C1CC[C@@H]2[C@](C)(CCC[C@@]2(C)C(=O)O)[C@H]1CCc1ccoc1")
"> 1.58 mM"
>>> result_value("C=C1CC[C@@H]2[C@](C)(CCC[C@@]2(C)C(=O)O)[C@H]1CC[C@H](C)CC(=O)O")
"> 1.55 mM"
>>> result_value("O=C(Cn1ccnc1[N+](=O)[O-])NCc1ccccc1")
"> 1.92 mM"
